biological target: UniProt:Q8TDS4; assay: Agonist activity at recombinant human HCA2 receptor expressed in Flp-IN HEK cells assessed as reduction in forskolin-stimulated cAMP accumulation measured after 30 mins relative to control; format: functional, cell-based
Each entry below carries its recorded Emax.
Please provide the amount together with its unit, number first.

Previously resolved entries follow.
structure-smiles	Emax
O=C(CCC#Cc1ccccc1O)NC1=C(C(=O)O)CCCC1	93%
O=C(CCC#Cc1ccccc1Cl)NC1=C(C(=O)O)CCCC1	95%
O=C(/C=C/C#Cc1ccccc1F)NC1=C(C(=O)O)CCCC1	84%
O=C(/C=C/C#Cc1ccccc1)NC1=C(C(=O)O)CCCC1	79%
O=C(CCC#Cc1ccc(O)cn1)NC1=C(C(=O)O)CCCC1	91%

Switching to the query record.
Can you look up Emax on UniProt:Q8TDS4 for O=C(CCC#Cc1ccc(O)cc1)NC1=C(C(=O)O)CCCC1 ? 91%

###

target: Hydroxycarboxylic acid receptor 2 (Homo sapiens); experiment: Agonist activity at recombinant human HCA2 receptor expressed in Flp-IN HEK cells assessed as reduction in forskolin-stimulated cAMP accumulation measured after 30 mins relative to control; type: functional, cell-based
Sequence (Q8TDS4 whole entry): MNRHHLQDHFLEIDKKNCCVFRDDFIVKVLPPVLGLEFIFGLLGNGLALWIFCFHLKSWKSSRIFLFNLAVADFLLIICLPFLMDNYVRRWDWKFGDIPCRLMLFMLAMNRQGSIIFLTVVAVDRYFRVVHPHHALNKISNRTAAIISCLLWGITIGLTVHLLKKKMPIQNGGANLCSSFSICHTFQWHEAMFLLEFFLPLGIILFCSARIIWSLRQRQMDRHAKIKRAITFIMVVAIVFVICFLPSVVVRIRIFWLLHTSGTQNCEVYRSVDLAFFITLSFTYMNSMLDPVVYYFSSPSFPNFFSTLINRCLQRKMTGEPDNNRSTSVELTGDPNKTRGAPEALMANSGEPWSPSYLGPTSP
Please use YES for Emax under 90% and NO for everything else, ties included.

Example results:
structure-smiles	group-label
O=C(/C=C/C#Cc1ccc(O)cc1F)NC1=C(C(=O)O)CCCC1	NO
O=C(CCC#Cc1ccc(O)cc1F)NC1=C(C(=O)O)CCCC1	NO
O=C(/C=C/CCc1ccccc1)NC1=C(C(=O)O)CCCC1	YES
O=C(CCC#Cc1ccc(C(=O)O)cc1)NC1=C(C(=O)O)CCCC1	YES

Determine whether this compound shows Emax lower than 90% (ties excluded): O=C(CCC#Cc1ccc(F)cc1)NC1=C(C(=O)O)CCCC1 NO

###

# maps each entry to its log10 EC50
molecular target: Hydroxycarboxylic acid receptor 2 (Homo sapiens); test: Agonist activity at recombinant human HCA2 receptor expressed in Flp-IN HEK cells assessed as reduction in forskolin-stimulated cAMP accumulation measured after 30 mins
Answers are given as log10 of EC50 in µM.

Consider the worked cases shown below.
structure-smiles	log10 EC50
O=C(/C=C/CCc1ccccc1)NC1=C(C(=O)O)CCCC1	1.29
O=C(CCc1ccc(-c2cccc(O)c2)cc1)NC1=C(C(=O)O)CCCC1	-0.64
O=C(/C=C/C#Cc1ccccc1F)NC1=C(C(=O)O)CCCC1	-0.35
O=C(/C=C/C#Cc1ccccc1O)NC1=C(C(=O)O)CCCC1	-0.60
O=C(CCC#Cc1ccc(O)cn1)NC1=C(C(=O)O)CCCC1	0.53

State the recorded log10 EC50 for this entry: O=C(CCc1ccc(-c2ccccc2O)cc1)NC1=C(C(=O)O)CCCC1 -0.39

Could you tell me which log10 EC50 is on file for O=C(/C=C/C#Cc1ccccc1Cl)NC1=C(C(=O)O)CCCC1 ? -0.57

So what's the measured log10 EC50 for this one? O=C(CCC#Cc1cccc(O)c1)NC1=C(C(=O)O)CCCC1 0.47

# query: log10 EC50 of entry O=C(CCC#Cc1ccccc1F)NC1=C(C(=O)O)CCCC1 -0.44

Bench note: what log10 EC50 did O=C(CCC#Cc1ccc(O)cc1)NC1=C(C(=O)O)CCCC1 show? -0.80

// returns reported log10 EC50 for input O=C(CCC#Cc1ccc(O)cc1Cl)NC1=C(C(=O)O)CCCC1 -1.05
